# System: SF-268
# assay_name: NCI tumour cell line growth inhibition, 48 h
The source made the active and inactive calls. Rule as the data show it: active = GI50 up to about 1.1 µM and inactive = higher.
Allowed answers: true (active), false (inactive)

Exercise: What classification did "CN(C)c1ccc(/N=N/c2ccncc2)cc1" end up with in this test?
Key: false

Exercise: What classification did "CN(C(=O)CCC(=O)O)c1ccccc1C(=O)O" end up with in this test?
Key: false

Exercise: What classification did "CN(C)c1ccc(/C=C(\NC(=O)c2ccccc2)c2nn(C)c(=O)o2)cc1" end up with in this test?
Key: false

Exercise: What classification did "C(=C\c1ccc2ccccc2c1Nc1ccccc1)/c1ccccc1" end up with in this test?
Key: false

Exercise: What classification did "CC1(C)CCC[C@](C)([C@H]2CC[C@]3(C)[C@@H]2[C@H](O)C[C@@H]2[C@@]4(C)CC[C@H](O)C(C)(C)[C@@H]4[C@H](O)C[C@]23C)O1" end up with in this test?
Key: false

Exercise: What classification did "CN(C)CCCNC(=O)c1cc(NC(=O)c2cc(NC(=O)c3cc(NC(=O)CCCn4ccc(CO)c4CO)cn3C)cn2C)cn1C" end up with in this test?
Key: false

Exercise: What classification did "O=C(NN1C(=O)c2ccccc2C1=O)c1ccccc1Nc1ccccc1C(=O)NN1C(=O)c2ccccc2C1=O" end up with in this test?
Key: false

Exercise: What classification did "O=[N+]([O-])c1ccc2c(c1)c1nn2CCCCOc2nn(c3ccc([N+](=O)[O-])cc23)CCCCO1" end up with in this test?
Key: false

Exercise: What classification did CCOC(=O)N1N=C(/C(C)=N/OC)C(C)[S+]1[O-] (stereo not drawn) end up with in this test?
Key: false

Exercise: What classification did "CC(C)C(=O)Nc1nc2[nH]cnc2c(=O)[nH]1" end up with in this test?
Key: false

Exercise: What classification did "CC(=O)Nc1ccc(NC(=O)c2c(Cl)c(Cl)c(Cl)c(Cl)c2-c2nc3ccccc3[nH]2)cc1" end up with in this test?
Key: false

Exercise: What classification did "COc1ccc2c(c1)-c1c(c3ccccc3n1CCN1CCOCC1)CC2" end up with in this test?
Key: false

Exercise: What classification did "CC1(C)CC(N(C(=O)/C=C/c2ccc([N+](=O)[O-])o2)C2CCCCC2)CC(C)(C)N1" end up with in this test?
Key: false

Exercise: What classification did CN(C)P(=O)(Oc1occc1C(O)Cc1ccccc1)N(C)C (stereo not drawn) end up with in this test?
Key: false

Exercise: What classification did "COc1cc(/C=C2\N=C(c3ccccc3)N(c3nc4cc(C)c(C)cc4s3)C2=O)ccc1O" end up with in this test?
Key: false

Exercise: What classification did "NCCOc1ccc(/C(=C(/Cl)c2ccccc2)c2ccccc2)cc1" end up with in this test?
Key: false

Exercise: What classification did "CCC(=O)N1C(=S)SC[C@H]1C(=O)OC" end up with in this test?
Key: false

Exercise: What classification did "O=S(=O)(CCn1c(Sc2ccccc2)c(Sc2ccccc2)c2ccccc21)c1ccccc1" end up with in this test?
Key: false

Exercise: What classification did "N#C/C(N)=C(C#N)/N=C/NCCO" end up with in this test?
Key: false

Exercise: What classification did "N=C(N)SCc1cn2ccccc2n1" end up with in this test?
Key: false

Exercise: What classification did COc1cccc(/C=C2\CCC(CN(C)C)C2=O)c1 (stereo not drawn) end up with in this test?
Key: false

Exercise: What classification did Cc1cc(Cl)ccc1NC(=O)CC1SC(N)=NC1=O (stereo not drawn) end up with in this test?
Key: false

Exercise: What classification did CNc1ccc(C(=O)CC(O)CCC(C)C2OC(=O)CC(O)CC(=O)CC(O)CC(O)CC(O)CC(O)CC3(O)CC(O)C(C(=O)N4CCOCC4)C(CC(OC4OC(C)C(O)C(N)C4O)\C=C/C=C\C=C/C=C/C=C/C=C\C=C/C2C)O3)cc1 (stereo not drawn) end up with in this test?
Key: true

Exercise: What classification did COC1CC(N)C(O)C(C)O1 (stereo not drawn) end up with in this test?
Key: false

Exercise: What classification did "C=C1C(=O)O[C@H]2[C@H]([C@H](C)CCCC(C)=O)O[C@H]([C@@]3(C)CCC(=O)O3)C[C@@H]12" end up with in this test?
Key: true

Exercise: What classification did "C=C1C(=O)O[C@@H]2[C@H]1CCC(C)=C1C=CC(=O)[C@]12C" end up with in this test?
Key: false

Exercise: What classification did COc1cc2cc(C(=O)N3CC(COS(C)(=O)=O)c4c3cc([N+](=O)[O-])c3ccccc43)[nH]c2c(OC)c1OC (stereo not drawn) end up with in this test?
Key: false

Exercise: What classification did O=C(O)c1ccc(C2COc3ccc(Cl)cc3C2)cc1 (stereo not drawn) end up with in this test?
Key: false

Exercise: What classification did "Cn1c(=O)c2c(nc(NCCNc3nc4c(c(=O)n(C)c(=O)n4C)n3C)n2C)n(C)c1=O" end up with in this test?
Key: false

Exercise: What classification did "CC(C)(C)c1cc(-c2c3nc(c(-c4cc(C(C)(C)C)cc(C(C)(C)C)c4)c4ccc([nH]4)c(-c4cc(C(C)(C)C)cc(C(C)(C)C)c4)c4nc(c(-c5cc(C(C)(C)C)cc(C(C)(C)C)c5)c5ccc2[nH]5)C=C4)C=C3)cc(C(C)(C)C)c1" end up with in this test?
Key: false

Exercise: What classification did O=c1c2cc(O)c(O)cc2oc2cc(O)c(C3OC(CO)C(O)C(O)C3O)c(O)c12 (stereo not drawn) end up with in this test?
Key: false

Exercise: What classification did C=C1CC2(C)CCC(OC(=O)C3(C)OC3C)C(C)(OC(C)=O)C2CC1=C(C)C (stereo not drawn) end up with in this test?
Key: false

Exercise: What classification did O=C(Nc1nc2ccc([N+](=O)[O-])cc2s1)C(=O)C(C(=O)c1ccncc1)C1OC(=O)c2ccccc21 (stereo not drawn) end up with in this test?
Key: false

Exercise: What classification did CC1=C2C(O)C(C(C)C(=O)N(C)C)CCC2(C)C=CC1=O (stereo not drawn) end up with in this test?
Key: false

Exercise: What classification did "O=C1Cc2ccccc2CCc2ccsc21" end up with in this test?
Key: false

Exercise: What classification did "COC(=O)c1ccc(CCC2=CC(=O)C=CC2=O)cc1" end up with in this test?
Key: false

Exercise: What classification did "Cc1cc(NS(=O)(=O)c2ccc(NC(=O)c3cccc4c(NNc5ccc(S(=O)(=O)N=C(N)N)cc5)c5ccccc5nc34)cc2)no1" end up with in this test?
Key: false

Exercise: What classification did "O=C1[C@@H](c2ccc(Cl)cc2)[C@H]2CC=C[C@H]2N1O" end up with in this test?
Key: false

---

# System: SR
# assay_name: NCI tumour cell line growth inhibition, 48 h
The source made the active and inactive calls. No stated cut-off is given here; in the data, active = GI50 up to about 1.1 µM and inactive = higher.
quantity_name: GI50

For "C=C1C(=O)O[C@H]2[C@H]([C@H](C)CCCC(C)=O)O[C@H]([C@@]3(C)CCC(=O)O3)C[C@@H]12" the compound record lists GI50 as 55.6 µM (inactive)

For CC(C)c1ccc(/C=C2\CSCC3=C2N=C2SCC(=O)N2C3c2ccc(C(C)C)cc2)cc1 (stereo not given) the compound record lists GI50 as 77.4 µM (inactive)

For "N#C/C(N)=C(C#N)/N=C/NCCO" the compound record lists GI50 as > 100 µM (inactive)

For "Cc1c(C)c2c(c(N)c1C#N)C(=O)N(NC(=O)c1ccccc1)C2=O" the compound record lists GI50 as > 100 µM (inactive)

For "Cn1cnc2c(NCc3ccccc3)nc(NCCO)nc21" the compound record lists GI50 as 29.7 µM (inactive)

For O=C(Nc1nc2ccc([N+](=O)[O-])cc2s1)C(=O)C(C(=O)c1ccncc1)C1OC(=O)c2ccccc21 (stereo not given) the compound record lists GI50 as > 100 µM (inactive)

For "COC(=O)c1cc2c(nc1C)-c1ccccc1OS2(=O)=O" the compound record lists GI50 as > 100 µM (inactive)

For "Cn1c(=O)c2c(nc(NCCNc3nc4c(c(=O)n(C)c(=O)n4C)n3C)n2C)n(C)c1=O" the compound record lists GI50 as > 100 µM (inactive)

For "CC(=O)O[C@]1(C)OC(=O)[C@@H](C)N1[N+](=O)[O-]" the compound record lists GI50 as 34.9 µM (inactive)

For "NS(=O)(=O)c1ccc(N2C(=O)C(=O)N(c3ccccc3)C2=S)cc1" the compound record lists GI50 as 18.9 µM (inactive)

For "CC1(C)CC(N(C(=O)/C=C/c2ccc([N+](=O)[O-])o2)C2CCCCC2)CC(C)(C)N1" the compound record lists GI50 as 5.89 µM (inactive)

For CSC1NNC2(C(=O)N1)c1ccccc1-c1ccccc12 (stereo not given) the compound record lists GI50 as > 10 µM (inactive)

For "Cc1cc(C(=C2C=CC(=[N+](C)C)C=C2)c2ccc([N+](C)(C)C)cc2)ccc1N(C)C" the compound record lists GI50 as 1.62 µM (inactive)

For "CN(/N=C/C=N/N(C)C1=NCCCN1)C1=NCCCN1" the compound record lists GI50 as > 100 µM (inactive)

For "C[n+]1c(-c2ccc(/C=N\Nc3ccnc(N/N=C/c4ccc(-c5cn6ccsc6[n+]5C)cc4)n3)cc2)cn2ccsc21" the compound record lists GI50 as 12.6 µM (inactive)

For O=c1c2cc(O)c(O)cc2oc2cc(O)c(C3OC(CO)C(O)C(O)C3O)c(O)c12 (stereo not given) the compound record lists GI50 as > 100 µM (inactive)

For Cc1coc2c1CC1(C)C(CCC(O)C1C)C2 (stereo not given) the compound record lists GI50 as > 100 µM (inactive)

For C=CCOCCCCC(C(C)=O)C(=O)OC (stereo not given) the compound record lists GI50 as > 100 µM (inactive)

For "Cc1cc(N(CCOS(C)(=O)=O)CCOS(C)(=O)=O)ccc1/C=N/c1ccc(-c2csc(-c3ccc(Br)cc3)n2)cc1" the compound record lists GI50 as 1.7 µM (inactive)

For "COc1ccc2c(c1)-c1c(c3ccccc3n1CCN1CCOCC1)CC2" the compound record lists GI50 as 19.1 µM (inactive)

Sourced from ChEMBL document CHEMBL1201862
